- subject_of_test: Recombinant human LTC4 synthase (Homo sapiens (Human))
- Sequence (Q16873 whole entry): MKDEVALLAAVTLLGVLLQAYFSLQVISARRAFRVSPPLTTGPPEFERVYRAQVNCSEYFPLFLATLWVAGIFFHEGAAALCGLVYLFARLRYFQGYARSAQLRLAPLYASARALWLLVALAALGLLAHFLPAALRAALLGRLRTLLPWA
- method_description: In vitro hLTC4 synthase enzyme assay (Test A)
- details: Test A (Examples 1-61); substrate LTA4, LTC4 detected by HTRF; median of at least two determinations
assay_endpoint: IC50
Mention the unit after the number when you answer.

What the record says about COc1cc(N(CC2CC2)c2ccc(C(F)(F)F)c3cccnc23)ccc1C(=O)C1CC1C(=O)O (centres unmarked) [Example 53] : IC50 is 152 nM

What the record says about COc1cc(N(Cc2cccc(C(F)(F)F)c2Cl)CC2CC2)cnc1C(=O)C1CC1C(=O)O (centres unmarked) [Example 22] : IC50 is 112 nM

What the record says about COc1cc(N(CC2CC2)c2ccc3ccccc3c2)cnc1C(=O)C1CC1C(=O)O (centres unmarked) [Example 12] : IC50 is 28 nM

Values from patent US20160326143A1
